Values compiled from ChEMBL document CHEMBL1147213.

- experiment: Inhibition of FTase by SPA
- Design: species or system Homo sapiens
pIC50: −log10 of the molar value.
metric: pIC50

**Query** Would you mind telling me what pIC50 value was observed for Cn1cncc1C(c1ccc2c(c1)c(-c1cccc(Cl)c1)nc1nnnn12)n1ccnc1-c1ccc(F)cc1 (stereo unspecified) ?
**Result** 8.40

**Query** Further, for Cn1cncc1C(N)(c1ccc(Cl)cc1)c1ccc2c(c1)c(-c1cccc(Cl)c1)nc1nnnn12 (stereo unspecified) ?
**Result** 8.46

**Query** Subsequent entry: N#Cc1ccc(Cn2cncc2C(O)c2ccc3c(c2)c(-c2cccc(Cl)c2)cc2nnnn23)cc1 (stereo unspecified)
**Result** 7.96

**Query** Same thing, different compound: Cn1cncc1[C@](N)(c1ccc(Cl)cc1)c1ccc2c(c1)c(-c1cccc(Cl)c1)cc(=O)n2C [(S)-TIPIFARNIB]
**Result** 9.05

**Query** Param item: Cn1cncc1C(N)(c1ccc(Cl)cc1)c1ccc2c(c1)c(-c1cccc(Cl)c1)cc1nnnn12 (stereo unspecified)
**Result** 8.46

A = Cn1cncc1C(c1ccc2c(c1)c(-c1cccc(Cl)c1)nc1nnnn12)n1ccnc1-c1ccccc1 (stereo unspecified)
B = CCc1nccn1C(c1ccc2c(c1)c(-c1cccc(Cl)c1)nc1nnnn12)c1cncn1C (stereo unspecified)
**Query** Endpoint returns the identifier whose pIC50 is numerically larger, either A or B . Give the chosen item's label as your response.
**Result** A

A = Cn1cncc1C(c1ccc2c(c1)c(-c1cccc(Cl)c1)nc1nnnn12)n1ccnc1-c1cccc(C#N)c1 (stereo unspecified)
B = Cn1cncc1C(O)(c1ccc2c(c1)c(-c1cccc(Cl)c1)nc1nnnn12)c1ccc(Cl)s1 (stereo unspecified)
**Query** Given the listed items, does A or B have the lesser reported pIC50? Mark your answer with the label of the selected entry.
**Result** B
